systemName: Matrix-associated proTGFβ1 (hLTBP1-proTGFβ1 and hLTBP3-proTGFβ1)
protocolText: MSD-SET, hIgG4
readout: ECM AVRG (average KD) (nM)
Provide the reading as a plain figure in nM.

[
  {
    "binder": "Ab29 (antibody, V domains shown) VH: EVQLVESGGGLVQPGRSLRLSCAASGFTFSSFAMNWVRQAPGKGLEWVSYISPDASTIYYAGSVKGRFTISRDNAKNSLYLQMNSLRAEDTAVYYCVRAVLDYGDMLDPWGQGTLVTVSS VL: DIQMTQSPSSLSASVGDRVTITCQASQDITNYLNWYQQKPGKAPKLLIYDASNLETGVPSRFSGSGSGTDFTFTISSLQPEDIATYYCQQADNHPPWTFGGGTKVEIK",
    "readout": "ECM AVRG (average KD)",
    "recordedValue": 0.012
  }
]

Data point: Ab24 (antibody, V domains shown) VH: EVQLVESGGGLVQPGRSLRLSCAASGFTFSSFAMYWVRQAPGKGLEWVSYISPDASTIYYADSVKGRFTISRDNAKNSLYLQMNSLRAEDTAVYYCARGVLDYGDMLDPWGQGTLVTVSS VL: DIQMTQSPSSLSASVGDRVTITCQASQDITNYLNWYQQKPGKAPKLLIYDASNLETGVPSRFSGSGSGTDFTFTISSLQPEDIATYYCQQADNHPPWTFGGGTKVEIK ; ECM AVRG (average KD) = 0.023
